FYI, the data here is from patent US20070185311A1.

Target: DD(E) fragment of fibrin
Test: affinity of fluorophore-labelled peptide; target taken as fibrin DD(E) fragment
pKd: −log10 of the molar value. No end group written: not given here. 4‑methoxycoumarin = 4-Methoxycoumarin, an N-terminal optical probe label
ENDPOINT: pKd

(1) tetramethylrhodamine-QWECPYGLCWIQ (cysteine pairing not given here) [Compound L: tetramethylrhodamine derivative of …]
(2) {4‑methoxycoumarin}-QWECPYGLCWIQ (cysteine pairing not given here) [Compound N: 4-methoxycoumarin derivative of …]
Task item: Short answer wanted: higher pKd, 1 or 2 ? Refer to your chosen entry by its label in the reply.
Reply: 2
